Catalogue of compounds with associated IC50
target: CDK2/Cyclin E2 (Homo sapiens); construct: Recombinant protein complex CDK2/Cyclin E2, expressed from insect cell, was purchased from ProQinase; experiment: CDK2/CyclinE2 Enzymatic Activity Assay (TR-FRET); conditions: ATP 1 mM final, read-out: CDK2_E1 IC50
test-readout: IC50

>>> result("C[C@@H]1CN(S(C)(=O)=O)CC[C@@H]1Nc1ncc(C(F)(F)F)c(-c2ncc(C(C)(O)C(F)F)s2)n1 (stereo partly shown)")
"≤ 100 nM"
>>> result("Cn1cnc(S(=O)(=O)N2CC[C@@H](Nc3ncc(C(F)(F)F)c(-c4cc(C(N)=O)ns4)n3)[C@H](F)C2)c1")
"≤ 100 nM"
>>> result("Cc1cnc(-c2nc(NC3CCN(S(=O)(=O)c4cnn(C)c4)CC3)ncc2C(F)(F)F)s1")
"≤ 100 nM"
>>> result("Cn1cnc(S(=O)(=O)N2CCC(Nc3ncc(C(F)(F)F)c(-c4nc(C(N)=O)cs4)n3)CC2)c1")
"> 500 nM"

* * *

target: CDK4/Cyclin D1 (Homo sapiens, UniProt P11802); assay: CDK4/CyclinD1 Enzymatic Activity Assay (TR-FRET); conditions: ATP 2 mM final, read-out: CDK4_D1 IC50
Sequence (P11802 whole entry): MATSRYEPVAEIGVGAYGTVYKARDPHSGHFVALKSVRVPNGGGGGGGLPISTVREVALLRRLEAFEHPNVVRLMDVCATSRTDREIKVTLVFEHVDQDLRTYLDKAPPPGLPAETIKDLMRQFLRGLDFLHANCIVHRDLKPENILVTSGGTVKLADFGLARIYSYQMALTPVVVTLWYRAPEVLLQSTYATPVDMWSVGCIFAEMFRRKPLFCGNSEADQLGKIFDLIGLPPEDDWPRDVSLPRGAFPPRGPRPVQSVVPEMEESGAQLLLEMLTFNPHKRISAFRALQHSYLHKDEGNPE
Sequence (P24385 whole entry partner): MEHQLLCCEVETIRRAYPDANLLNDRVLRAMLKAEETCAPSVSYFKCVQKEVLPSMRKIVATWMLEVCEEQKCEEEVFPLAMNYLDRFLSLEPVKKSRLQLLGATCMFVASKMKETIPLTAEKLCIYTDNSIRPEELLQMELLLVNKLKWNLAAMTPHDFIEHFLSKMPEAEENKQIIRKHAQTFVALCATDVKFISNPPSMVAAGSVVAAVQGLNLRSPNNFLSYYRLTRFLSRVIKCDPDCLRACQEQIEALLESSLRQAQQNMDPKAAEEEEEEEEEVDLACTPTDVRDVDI
Catalogue of molecules with associated IC50
test-readout: IC50

>>> result("Cc1sc(-c2nc(NC3CCN(S(=O)(=O)c4cnn(C)c4)CC3)ncc2C(F)(F)F)cc1C(N)=O")
"≤ 100 nM"
>>> result("Cn1cnc(S(=O)(=O)N2CCC(Nc3ncc(C(F)(F)F)c(-c4ncc(C(O)C(F)(F)F)s4)n3)CC2)c1 (centres unmarked)")
"≤ 100 nM"
>>> result("Cc1sc(-c2nc(NC3CCN(S(C)(=O)=O)CC3)ncc2C(F)(F)F)cc1C#N")
"≤ 100 nM"
>>> result("Cn1cnc(S(=O)(=O)N2CCC(Nc3ncc(C(F)(F)F)c(-c4cc(C(N)=O)ns4)n3)CC2)c1")
"≤ 100 nM"
>>> result("C[C@@H]1CN(S(C)(=O)=O)CC[C@@H]1Nc1ncc(C(F)(F)F)c(-c2cc(C(N)=O)c(CC(C)(C)O)s2)n1")
"100 to 500 nM"
>>> result("Cn1cnc(S(=O)(=O)N2CC[C@@H](Nc3ncc(C(F)(F)F)c(-c4cc(C(N)=O)c(CC(C)(C)O)s4)n3)[C@H](F)C2)c1")
"≤ 100 nM"
>>> result("Cc1sc(-c2nc(N[C@H]3CCN(S(=O)(=O)c4c[nH]cn4)C[C@H]3C)ncc2C(F)(F)F)cc1C(N)=O")
"≤ 100 nM"
>>> result("C[C@@H]1CN(S(=O)(=O)c2cnn(C)c2)CC[C@@H]1Nc1ncc(C(F)(F)F)c(-c2cc(C#N)c(CC(C)(C)O)s2)n1")
"100 to 500 nM"
>>> result("C[C@@H]1CN(S(C)(=O)=O)CC[C@@H]1Nc1ncc(C(F)(F)F)c(-c2ncc(C(C)(O)C(F)F)s2)n1 (some centres unmarked)")
"100 to 500 nM"
>>> result("Cc1sc(-c2nc(N[C@H]3CCN(S(=O)(=O)c4cn(C)cn4)C[C@H]3F)ncc2C(F)(F)F)cc1C#N")
"≤ 100 nM"
>>> result("Cc1sc(-c2nc(N[C@@H]3CCN(S(C)(=O)=O)C[C@H]3F)ncc2C(F)(F)F)cc1C(N)=O")
"≤ 100 nM"
>>> result("Cn1cc(S(=O)(=O)N2CCC(Nc3ncc(C(F)(F)F)c(-c4ncc(C(O)C(F)(F)F)s4)n3)CC2)cn1 (centres unmarked)")
"≤ 100 nM"
>>> result("C[C@@H]1CN(S(C)(=O)=O)CC[C@@H]1Nc1ncc(C(F)(F)F)c(-c2cc(C(N)=O)cs2)n1")
"100 to 500 nM"
>>> result("Cn1cnc(S(=O)(=O)N2CC[C@H](Nc3ncc(C(F)(F)F)c(-c4cc(C(N)=O)ns4)n3)[C@H](F)C2)c1")
"≤ 100 nM"

These data points were gathered from patent US20240150340A1.
